biological target: Factor X (FX), P00742
Sequence (P00742 whole entry, looked up): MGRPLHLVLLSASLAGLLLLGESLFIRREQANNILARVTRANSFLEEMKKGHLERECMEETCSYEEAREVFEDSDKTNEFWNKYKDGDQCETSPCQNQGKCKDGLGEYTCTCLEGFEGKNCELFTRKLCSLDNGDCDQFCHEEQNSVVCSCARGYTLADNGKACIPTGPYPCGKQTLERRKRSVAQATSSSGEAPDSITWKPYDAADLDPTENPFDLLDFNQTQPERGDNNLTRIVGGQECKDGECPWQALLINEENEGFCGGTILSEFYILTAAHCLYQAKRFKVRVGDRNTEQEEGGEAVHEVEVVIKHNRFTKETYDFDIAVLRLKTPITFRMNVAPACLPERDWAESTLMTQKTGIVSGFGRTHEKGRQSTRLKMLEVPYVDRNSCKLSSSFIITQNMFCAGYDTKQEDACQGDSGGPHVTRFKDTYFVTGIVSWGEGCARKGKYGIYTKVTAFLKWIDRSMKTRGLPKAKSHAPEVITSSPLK
reported_endpoint: kcat of FX activation by FIXa in the Xase complex (FVIIIa, PC/PS vesicles, Ca2+) (s⁻¹)
State the answer as a number, implicitly in s⁻¹.

If you can, please state the reported kcat of FX activation by FIXa in the Xase complex (FVIIIa, PC/PS vesicles, Ca2+) value of FIXa-N260S/R318Y/R338E/R403E/E410N (protein) chain 1: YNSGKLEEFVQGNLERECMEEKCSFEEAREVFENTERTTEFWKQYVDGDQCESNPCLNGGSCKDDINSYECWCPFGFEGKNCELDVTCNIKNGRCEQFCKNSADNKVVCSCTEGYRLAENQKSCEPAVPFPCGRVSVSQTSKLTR chain 2: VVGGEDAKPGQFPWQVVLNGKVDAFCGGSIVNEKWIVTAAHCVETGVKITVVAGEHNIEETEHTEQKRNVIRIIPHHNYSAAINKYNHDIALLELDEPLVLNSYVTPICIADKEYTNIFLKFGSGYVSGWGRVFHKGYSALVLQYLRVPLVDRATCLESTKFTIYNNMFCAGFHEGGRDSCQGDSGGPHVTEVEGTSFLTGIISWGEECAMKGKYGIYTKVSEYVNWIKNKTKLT .
3.8
